tgt: T1, 4H1985-bA
T1 chain: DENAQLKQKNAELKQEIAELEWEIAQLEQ
assay-explanation: two-hybrid library CCNG1;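 also: natural log of median RNA to DNA barcode read ratio; higher means stronger binding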
measured-parameter: interaction score

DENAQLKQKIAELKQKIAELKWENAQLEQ [4H1899-bA] = 0.619
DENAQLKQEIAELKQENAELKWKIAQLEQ [4H1629-bA] = -0.329
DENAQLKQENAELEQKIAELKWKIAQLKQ [4H1710-bA] = 2.11
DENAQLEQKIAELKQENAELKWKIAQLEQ [4H1373-bA] = -0.533
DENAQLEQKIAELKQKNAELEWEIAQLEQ [4H1393-bA] = -1.7
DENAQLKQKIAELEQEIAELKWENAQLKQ [4H1804-bA] = -0.729
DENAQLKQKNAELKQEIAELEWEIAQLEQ [4H1985-bA] = -0.898
